- System: beet armyworm (Spodoptera exigua)
- Assay overview: Insecticidal test for beet armyworm, treated lepidopteran diet
- Assay type: in vivo
- Condition set: Spodoptera exigua, 120 h, read-out: BAW: activity at 400 ppm against beet armyworm (% Control rating)
Measurement kind: pest or weed control at 400 ppm

Consider the reported pest or weed control at 400 ppm for these compounds:
>>> result("Cc1cccc(-c2ccc(C3COC(c4c(Cl)cncc4Cl)=N3)cc2)c1 (centres unmarked)")
"90 to 100%"
>>> result("Cc1ccc(-c2ccc(C3COC(c4c(Cl)cncc4Cl)=N3)cc2)cc1C (centres unmarked)")
"90 to 100%"

Any idea what pest or weed control at 400 ppm was measured for Cc1ccc(-c2ccc(C3COC(c4c(Cl)cncc4Cl)=N3)cc2)s1 (centres unmarked) ? 80 to 89%

Need pest or weed control at 400 ppm, item Cc1ccc(-c2ccc(C3COC(c4c(Cl)cncc4Cl)=N3)cc2)cc1 (centres unmarked) 90 to 100%

What does the record list as pest or weed control at 400 ppm for Clc1ccc(-c2ccc(C3COC(c4c(Cl)cncc4Cl)=N3)cc2)cc1 (centres unmarked) ? 90 to 100%

* * *

- Tested on: tobacco budworm (Heliothis virescens)
- Assay overview: Insecticidal test for tobacco budworm, treated cotton cotyledon leaf disc
- Assay type: in vivo
- Condition set: Heliothis virescens, foliar, 120 h; 400 ppm, leaf-dip cotton cotyledon disc, 2nd instar larvae, 5 days; read-out: TBW: activity at 400 ppm against tobacco budworm (% Control rating)
Each entry below carries its recorded pest or weed control at 400 ppm.

Sample Cc1cc(-c2ccc(OC(F)(F)F)cc2)ccc1C1COC(c2c(Cl)cncc2Cl)=N1 (stereo not drawn) — what was its pest or weed control at 400 ppm? 90 to 100%

Could you share which pest or weed control at 400 ppm value was measured for Cc1cc(-c2ccc(C(F)(F)F)cc2)ccc1C1COC(c2c(Cl)cncc2Cl)=N1 (stereo not drawn) ? 90 to 100%

// pest or weed control at 400 ppm lookup, key: Fc1c(-c2ccc(C3COC(c4c(Cl)cncc4Cl)=N3)cc2)cccc1C(F)(F)F (stereo not drawn) 60 to 69%

Return reported pest or weed control at 400 ppm; argument: Fc1ccc(-c2ccc(C3COC(c4c(Cl)cncc4Cl)=N3)cc2)cc1C(F)(F)F (stereo not drawn) 80 to 89%

Form field: reported pest or weed control at 400 ppm of CCOc1ccc(-c2ccc(C3COC(c4c(Cl)cncc4Cl)=N3)cc2)cc1 (stereo not drawn) 80 to 89%

Which value of pest or weed control at 400 ppm has been reported for C[C@H]1OC(c2c(Cl)cncc2Cl)=N[C@@H]1c1ccc(-c2ccc(OC(F)(F)F)cc2)cc1 in the records? 90 to 100%

What value of pest or weed control at 400 ppm has been reported for the following compound? C[S+]([O-])c1ccc(-c2ccc(C3COC(c4c(Cl)cncc4Cl)=N3)cc2)cc1 (stereo not drawn) 60 to 69%

If you can, please state the reported pest or weed control at 400 ppm value of Fc1cc(C(F)(F)F)ccc1-c1ccc(C2COC(c3c(Cl)cncc3Cl)=N2)cc1 (stereo not drawn) . 90 to 100%

Entry FC(F)(F)c1ccc(-c2ccc(C3COC(c4c(Cl)cncc4Cl)=N3)cc2)cc1 (stereo not drawn) : reported pest or weed control at 400 ppm = ? < 50%

* * *

- System: cabbage looper (Trichoplusia ni)
- Assay overview: Insecticidal test for cabbage looper, treated cabbage leaf disc
- Format: in vivo
- Condition set: Trichoplusia ni, foliar, 120 h; 400 ppm, leaf-dip cabbage leaf disc, 2nd instar larvae, 5 days; read-out: CL: activity at 400 ppm against cabbage looper (% Control rating)
Measurement kind: pest or weed control at 400 ppm

Example results:
>>> result("Cc1cc(-c2ccc(C(F)(F)F)cc2)ccc1C1COC(c2c(Cl)cncc2Cl)=N1 (stereo not drawn) [Compound 43]")
"90 to 100%"
>>> result("Fc1cncc(F)c1C1=NC(c2ccc(-c3ccc(C(F)(F)F)cc3)cc2)CO1 (stereo not drawn) [Compound 39]")
"90 to 100%"
>>> result("FC(F)(F)Oc1ccc(-c2ccc(C3COC(c4c(Cl)cncc4Cl)=N3)cc2)cc1 (stereo not drawn) [Compound 6]")
"90 to 100%"

Form field: reported pest or weed control at 400 ppm of Fc1ccccc1-c1ccc(C2COC(c3c(Cl)cncc3Cl)=N2)cc1 (stereo not drawn) [Compound 23] 90 to 100%

Recorded pest or weed control at 400 ppm for CCOc1ccc(-c2ccc(C3COC(c4c(Cl)cncc4Cl)=N3)cc2)cc1 (stereo not drawn) [Compound 12] , please? 60 to 69%

Bench note: what pest or weed control at 400 ppm did FCSc1ccc(-c2ccc(C3COC(c4c(Cl)cncc4Cl)=N3)cc2)cc1 (stereo not drawn) [Compound 37] show? 60 to 69%

* * *

- Tested on: cabbage looper (Trichoplusia ni)
- Assay overview: Insecticidal test for cabbage looper, treated cabbage leaf disc
- Assay type: in vivo
- Condition set: Trichoplusia ni, foliar, 120 h; 400 ppm, leaf-dip cabbage leaf disc, 2nd instar larvae, 5 days; read-out: CL: activity at 400 ppm against cabbage looper (% Control rating)
Measurement kind: pest or weed control at 400 ppm

# annotated cases, reported pest or weed control at 400 ppm shown
>>> result("Fc1cncc(F)c1C1=NC(c2ccc(-c3ccc(OC(F)(F)F)cc3)cc2)CO1 (stereo not drawn) [Compound 40]")
"90 to 100%"
>>> result("Cc1ccc(-c2ccc(C3COC(c4c(Cl)cncc4Cl)=N3)cc2)cc1F (stereo not drawn) [Compound 26]")
"60 to 69%"

Can you look up the measured pest or weed control at 400 ppm of C[S+]([O-])c1ccc(-c2ccc(C3COC(c4c(Cl)cncc4Cl)=N3)cc2)cc1 (stereo not drawn) [Compound 36] for me? 90 to 100%

Quick one: pest or weed control at 400 ppm for FC(F)(F)c1ccc(-c2ccc(C3COC(c4c(Cl)cncc4Cl)=N3)cc2)c(Cl)c1 (stereo not drawn) [Compound 17] ? 90 to 100%

What value of pest or weed control at 400 ppm has been recorded for this entry: Cc1cc(-c2ccc(OC(F)(F)F)cc2)ccc1C1COC(c2c(Cl)cncc2Cl)=N1 (stereo not drawn) [Compound 44] 90 to 100%

* * *

- System: cabbage looper (Trichoplusia ni)
- Assay overview: Insecticidal test for cabbage looper, treated cabbage leaf disc
- Type: in vivo
- Condition set: Trichoplusia ni, foliar, 120 h; 400 ppm, leaf-dip cabbage leaf disc, 2nd instar larvae, 5 days; read-out: CL: activity at 400 ppm against cabbage looper (% Control rating)
Measurement kind: pest or weed control at 400 ppm

>>> result("Clc1cncc(Cl)c1C1=NC(c2ccc(-c3ccc4c(c3)OCO4)cc2)CO1 (stereo not shown)")
"90 to 100%"

Turning to the following compound.
# input compound: Clc1ccccc1-c1ccc(C2COC(c3c(Cl)cncc3Cl)=N2)cc1 (stereo not shown) ; wanted: its pest or weed control at 400 ppm 80 to 89%

* * *

- System: cabbage looper (Trichoplusia ni)
- Assay overview: Insecticidal test for cabbage looper, treated cabbage leaf disc
- Type: in vivo
- Condition set: Trichoplusia ni, foliar, 120 h; 400 ppm, leaf-dip cabbage leaf disc, 2nd instar larvae, 5 days; read-out: CL: activity at 400 ppm against cabbage looper (% Control rating)
Measurement kind: pest or weed control at 400 ppm

>>> result("CC(C)c1ccc(-c2ccc(C3COC(c4c(Cl)cncc4Cl)=N3)cc2)cc1 (centres unmarked) [Compound 30]")
"60 to 69%"
>>> result("CSc1ccc(-c2ccc(C3COC(c4c(Cl)cncc4Cl)=N3)cc2)cc1 (centres unmarked) [Compound 35]")
"90 to 100%"
>>> result("Cc1ccccc1-c1ccc(C2COC(c3c(Cl)cncc3Cl)=N2)cc1 (centres unmarked) [Compound 25]")
"< 50%"
>>> result("CCOc1ccc(-c2ccc(C3COC(c4c(Cl)cncc4Cl)=N3)c(C)c2)cc1 (centres unmarked) [Compound 42]")
"80 to 89%"
>>> result("Fc1ccc(C(F)(F)F)cc1-c1ccc(C2COC(c3c(Cl)cncc3Cl)=N2)cc1 (centres unmarked) [Compound 34]")
"90 to 100%"
>>> result("C[C@H]1OC(c2c(Cl)cncc2Cl)=N[C@@H]1c1ccc(-c2ccc(OC(F)(F)F)cc2)cc1 [Compound 48]")
"90 to 100%"
>>> result("FC(F)(F)c1cccc(-c2ccc(C3COC(c4c(Cl)cncc4Cl)=N3)cc2)c1 (centres unmarked) [Compound 15]")
"90 to 100%"
>>> result("Fc1cccc(-c2ccc(C3COC(c4c(Cl)cncc4Cl)=N3)cc2)c1 (centres unmarked) [Compound 19]")
"60 to 69%"
>>> result("Fc1ccc(-c2ccc(C3COC(c4c(Cl)cncc4Cl)=N3)cc2)cc1C(F)(F)F (centres unmarked) [Compound 29]")
"90 to 100%"
>>> result("FC(F)(F)c1ccc(-c2ccc(C3COC(c4c(Cl)cncc4Cl)=N3)cc2)cc1 (centres unmarked) [Compound 5]")
"90 to 100%"

Then there is this molecule:
Recorded pest or weed control at 400 ppm for COc1ccc(-c2ccc(C3COC(c4c(Cl)cncc4Cl)=N3)cc2)cn1 (centres unmarked) [Compound 7] , please? 80 to 89%
